Data origin: patent US7629438B2

System: Candida albicans ATCC10231
Format: cell-based
Ends that are not written are not given here.
Below, each entry is listed with its recorded MIC.
readout type: MIC (µg/mL)

>>> print(df.to_string())
                             sequence_input             subject_of_test  quantitative_readout
0             RFKLFKKIPRLLRRGLRKVLK [GK-19]  Candida albicans ATCC10231                    16
1            KWKLFKKIGIGRLLRRLLRRLLR [GK-2]  Candida albicans ATCC10231                    10
2                RWRLFKRIGIGRLLKRGLR [GK-3]  Candida albicans ATCC10231                    11
3            KWKLFKKIGIGRLLKRGLRKLLK [GK-1]  Candida albicans ATCC10231                     8
4  RWKLFKKIEKVGRNVRDGLIKAGPAIAVIGQAKSL [cecropin A1, reference compound]  Candida albicans ATCC10231                    50

====

Test system: CMCC50094
Assay: MIC assay, 96-well microtiter plate
Assay type: cell-based
Conditions: B Subacute sclerosing panencephalitis CMCC50094 (G−)
Ends that are not written are not given here.
readout type: MIC (µg/mL)

                             sequence_input  subject_of_test  quantitative_readout
0  RWKLFKKIEKVGRNVRDGLIKAGPAIAVIGQAKSL [cecropin A1, reference compound]        CMCC50094                    12
1             RFKLFKKIPRLLRRGLRKVLK [GK-19]        CMCC50094                     1
2                RWRLFKRIGIGRLLKRGLR [GK-3]        CMCC50094                     6
3            KWKLFKKIGIGRLLRRLLRRLLR [GK-2]        CMCC50094                     1
4            KWKLFKKIGIGRLLKRGLRKLLK [GK-1]        CMCC50094                     4

====

System: Micrococcus lysoleikticus S1.634
Format: cell-based
Ends that are not written are not given here.
readout type: MIC (mg/L)

>>> df
                             sequence_input  readout_type  quantitative_readout
0             RFKLFKKIPRLLRRGLRKVLK [GK-19]           MIC                     4
1            KWKLFKKIGIGRLLKRGLRKLLK [GK-1]           MIC                   1.0
2  RWKLFKKIEKVGRNVRDGLIKAGPAIAVIGQAKSL [cecropin A1, reference compound]           MIC                    50
3                RWRLFKRIGIGRLLKRGLR [GK-3]           MIC                   1.2
4            KWKLFKKIGIGRLLRRLLRRLLR [GK-2]           MIC                   0.8
